- condition details: in n-butanol, 293.15 K
endpoint: solubility (mole fraction)

solubility (mole fraction) for CC(=O)Nc1ccc(OC(=O)c2ccccc2OC(C)=O)cc1 ?
0.000375

###

- condition details: in n-propanol, 298.15 K
endpoint: solubility (mole fraction)
Reply with the value as a number alone.

solubility (mole fraction) for CC(=O)Nc1ccc(OC(=O)c2ccccc2OC(C)=O)cc1 ?
0.000264

###

- condition details: in ethyl acetate, 298.15 K
endpoint: solubility (mole fraction)
Reply with the value as a number alone.

solubility (mole fraction) for CC(=O)Nc1ccc(OC(=O)c2ccccc2OC(C)=O)cc1 ?
0.000983

###

- condition details: in toluene, 293.15 K
endpoint: solubility (mole fraction)
Reply with the value as a number alone.

solubility (mole fraction) for CC(=O)Nc1ccc(OC(=O)c2ccccc2OC(C)=O)cc1 ?
3.4e-05
